molecular target: β1-AR (Homo sapiens); assay: [3H]DHA radioligand displacement on membranes of HEK293T cells expressing β1-AR; details: pKi trans, β1-AR, without prior illumination (trans-isomer)
Sequence (P08588 whole entry): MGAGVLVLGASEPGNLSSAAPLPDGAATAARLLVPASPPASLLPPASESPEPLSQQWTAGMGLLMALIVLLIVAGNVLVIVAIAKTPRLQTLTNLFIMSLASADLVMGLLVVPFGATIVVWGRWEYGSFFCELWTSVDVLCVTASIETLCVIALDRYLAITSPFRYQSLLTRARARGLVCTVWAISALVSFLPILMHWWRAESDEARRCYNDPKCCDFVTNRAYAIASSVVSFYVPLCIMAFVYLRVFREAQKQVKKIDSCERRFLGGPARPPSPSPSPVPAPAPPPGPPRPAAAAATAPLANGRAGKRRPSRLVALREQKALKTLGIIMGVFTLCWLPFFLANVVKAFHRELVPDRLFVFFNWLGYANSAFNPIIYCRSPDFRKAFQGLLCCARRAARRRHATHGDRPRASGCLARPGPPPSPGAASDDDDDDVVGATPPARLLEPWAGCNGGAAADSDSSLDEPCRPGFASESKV
endpoint: Ki (nM)

1 = CC(C)NCC(O)COc1ccccc1/N=N/c1ccccc1 (stereo not drawn)
2 = CC(C)NCC(O)COc1cccc(N=Nc2ccccc2)c1 (stereo not drawn)
3 = CC(C)NCC(O)COc1ccc(/N=N/c2ccccc2)cc1 (stereo not drawn)
Take the molecules listed above and rank them by Ki; the top slot goes to the highest value. Respond with the label ranking, as requested. 2, 3, 1
(2: 5010 nM, 3: 12.6 nM, 1: 7.94 nM)
